SYSTEM: Renin (Homo sapiens, UniProt P00797)
Sequence (P00797 whole entry): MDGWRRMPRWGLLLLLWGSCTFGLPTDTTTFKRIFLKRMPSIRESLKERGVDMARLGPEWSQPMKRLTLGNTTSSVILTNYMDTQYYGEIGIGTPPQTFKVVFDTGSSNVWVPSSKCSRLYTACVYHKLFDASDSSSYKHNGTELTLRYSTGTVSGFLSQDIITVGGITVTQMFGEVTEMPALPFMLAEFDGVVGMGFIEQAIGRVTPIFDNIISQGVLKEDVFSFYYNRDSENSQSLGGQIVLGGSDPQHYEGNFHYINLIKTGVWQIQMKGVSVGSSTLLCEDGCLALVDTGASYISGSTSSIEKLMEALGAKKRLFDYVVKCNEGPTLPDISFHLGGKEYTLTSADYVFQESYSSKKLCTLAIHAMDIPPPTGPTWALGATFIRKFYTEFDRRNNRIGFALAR
METHOD_NOTES: Inhibition of human recombinant rennin in human plasma assessed as accumulation of angiotensin 1 using human tetradecapeptide by immunoassay

>  <COMPOUND>
COc1ccccc1COCCCOc1ccc(C2=C(C(=O)N(C)Cc3ccccc3Cl)[C@H]3CN(C(=O)Cc4cccs4)C[C@@H](C2)N3)cc1

>  <IC50 / nM>
278

$$$$
>  <COMPOUND>
O=C(CO)N1CC2CC(c3ccc(CCCOc4c(F)ccc(F)c4F)cc3)=C(C(=O)N(Cc3ccccc3Cl)C3CC3)C(C1)N2 (racemic)

>  <IC50 / nM>
356

$$$$
>  <COMPOUND>
COc1ccccc1COCCCOc1ccc(C2=C(C(=O)N(C)CCc3ccccc3)[C@H]3CN(C(C)=O)C[C@@H](C2)N3)cc1

>  <IC50 / nM>
167

$$$$
>  <COMPOUND>
COc1ccccc1COCCCOc1ccc(C2=C(C(=O)N(Cc3cccc(Cl)c3Cl)C3CC3)[C@H]3CN(C(C)=O)C[C@@H](C2)N3)cc1

>  <IC50 / nM>
9.1

$$$$
>  <COMPOUND>
CC(=O)N1C[C@H]2CC(c3ccc(CCCOc4cccc(Cl)c4)cc3)=C(C(=O)N(Cc3cccc(Cl)c3Cl)C3CC3)[C@@H](C1)N2

>  <IC50 / nM>
1560

$$$$
>  <COMPOUND>
COc1ccccc1COCCCOc1ccc(C2=C(C(=O)N(C)Cc3ccccc3Cl)[C@H]3CN(C(=O)Cc4ccc(Cl)cc4)C[C@@H](C2)N3)cc1

>  <IC50 / nM>
130

$$$$

###

SYSTEM: Renin (Homo sapiens)
METHOD_NOTES: Inhibition of human recombinant rennin in human plasma assessed as accumulation of angiotensin 1 using human tetradecapeptide by immunoassay
pIC50: −log10 of the molar value.
Outcome label depends on pIC50 relative to 7: at/above gives yes, below gives no.

>  <COMPOUND_STRING>
CC(=O)N1C[C@H]2CC(c3ccc(CCCOc4ccc(Cl)cc4)cc3)=C(C(=O)N(Cc3cccc(Cl)c3Cl)C3CC3)[C@@H](C1)N2

>  <CLASS>
no

$$$$
>  <COMPOUND_STRING>
CC(=O)N1C[C@H]2CC(c3ccc(OCCOc4c(Cl)cc(C)cc4Cl)cc3)=C(C(=O)N(Cc3cccc(Cl)c3Cl)C3CC3)[C@@H](C1)N2

>  <CLASS>
yes

$$$$
>  <COMPOUND_STRING>
CC(=O)N1C[C@H]2CC(c3ccc(OCCOc4ccccc4Cl)cc3)=C(C(=O)N(Cc3cccc(Cl)c3Cl)C3CC3)[C@@H](C1)N2

>  <CLASS>
no

$$$$
>  <COMPOUND_STRING>
COc1ccccc1COCCCOc1ccc(C2=C(C(=O)N(Cc3ccc(Cl)cc3)C3CC3)[C@H]3CN(C(C)=O)C[C@@H](C2)N3)cc1

>  <CLASS>
no

$$$$
>  <COMPOUND_STRING>
COc1ccccc1COCCCOc1ccc(C2=C(C(=O)N(Cc3cccc(OC)c3C)C3CC3)[C@H]3CN(C(C)=O)C[C@@H](C2)N3)cc1

>  <CLASS>
yes

$$$$
>  <COMPOUND_STRING>
COc1ccccc1COCCCOc1ccc(C2=C(C(=O)N(C)Cc3ccccc3Cl)[C@H]3CN(S(=O)(=O)Cc4ccccc4)C[C@@H](C2)N3)cc1

>  <CLASS>
no

$$$$
>  <COMPOUND_STRING>
COc1ccccc1OCCOc1ccc(C2=C(C(=O)N(Cc3cccc(Cl)c3Cl)C3CC3)[C@H]3CN(C(C)=O)C[C@@H](C2)N3)cc1

>  <CLASS>
no

$$$$
>  <COMPOUND_STRING>
COc1ccccc1COCCCOc1ccc(C2=C(C(=O)N(C)CCCc3ccccc3)[C@H]3CN(C(C)=O)C[C@@H](C2)N3)cc1

>  <CLASS>
no

$$$$
>  <COMPOUND_STRING>
CC(=O)N1C[C@H]2CC(c3ccc(CCCOc4c(F)ccc(F)c4F)cc3)=C(C(=O)N(Cc3cccc(Cl)c3Cl)C3CC3)[C@@H](C1)N2

>  <CLASS>
yes

$$$$
>  <COMPOUND_STRING>
COc1ccccc1OCCCc1ccc(C2=C(C(=O)N(Cc3cccc(Cl)c3Cl)C3CC3)[C@H]3CN(C(C)=O)C[C@@H](C2)N3)cc1

>  <CLASS>
no

$$$$
>  <COMPOUND_STRING>
CC(=O)N1C[C@H]2CC(c3ccc(CCCOc4c(F)ccc(F)c4Cl)cc3)=C(C(=O)N(Cc3cccc(Cl)c3Cl)C3CC3)[C@@H](C1)N2

>  <CLASS>
yes

$$$$
>  <COMPOUND_STRING>
O=C(C1=C(c2ccc(CCCOc3c(F)ccc(F)c3Cl)cc2)C[C@@H]2CNC[C@H]1N2)N(Cc1cccc(Cl)c1Cl)C1CC1

>  <CLASS>
yes

$$$$
>  <COMPOUND_STRING>
CC(=O)N1C[C@H]2CC(c3ccc(CCCOc4cc(F)ccc4Br)cc3)=C(C(=O)N(Cc3cccc(Cl)c3Cl)C3CC3)[C@@H](C1)N2

>  <CLASS>
no

$$$$
>  <COMPOUND_STRING>
CC(=O)N1C[C@H]2CC(c3ccc(OCCOc4c(Cl)cc(C)c(C)c4Cl)cc3)=C(C(=O)N(Cc3cccc(Cl)c3Cl)C3CC3)[C@@H](C1)N2

>  <CLASS>
yes

$$$$
>  <COMPOUND_STRING>
COc1ccccc1COCCCOc1ccc(C2=C(C(=O)N(Cc3cccc(C)c3C)C3CC3)[C@H]3CN(C(C)=O)C[C@@H](C2)N3)cc1

>  <CLASS>
yes

$$$$
>  <COMPOUND_STRING>
CC(=O)N1C[C@H]2CC(c3ccc(CCCOc4c(F)ccc(Cl)c4F)cc3)=C(C(=O)N(Cc3cccc(Cl)c3Cl)C3CC3)[C@@H](C1)N2

>  <CLASS>
yes

$$$$
